- Tested on: PANC-1
- protocol.summary: Induction of apoptosis in human PANC1 cells assessed as accumulation at sub-G0/G1 phase at 20 uM after 72 hrs by propidium iodide staining based flow cytometry (reference value: 1.6 to 3.2%)
- Format: functional
Exam item: assign true (1) to entries whose Activity is below 20% and false (0) to entries at or above 20%. Note that a value of exactly 20% receives false (0).

compound | assay.target | class.assignment
CCCCCCCC/C=C/CCCCCCCCOC[C@@H]1CCCN1.Cl | PANC-1 | true (1)

IN: Is 20% strictly greater than the compound's reported Activity? compound: Cl.O[C@H]1CN[C@H](COCCCCCCCC/C=C/c2ccc(Oc3ccccc3)cc2)C1
OUT: false (0)

IN: Is 20% strictly greater than the compound's reported Activity? compound: C(=C\c1ccc(-c2ccccc2)cc1)/CCCCCCOC[C@@H]1CCCN1.Cl
OUT: true (1)

IN: Is 20% strictly greater than the compound's reported Activity? compound: CCCCCCCCCCCCCCCCOC[C@H]1NC[C@H](O)[C@@H]1O
OUT: true (1)

IN: Is 20% strictly greater than the compound's reported Activity? compound: Cl.O[C@H]1CN[C@H](COCCCCCCCCC/C=C/c2ccc(-c3ccccc3)cc2)C1
OUT: false (0)

IN: Is 20% strictly greater than the compound's reported Activity? compound: CCCCCCCCCCCCCCCCCCOCC(COP(=O)([O-])OCC[N+](C)(C)C)OC (stereo unspecified)
OUT: false (0)

====

compounds and their reported Activity
- System: PK9
- protocol.summary: Induction of apoptosis in human PK9 cells assessed as accumulation at sub-G0/G1 phase at 10 uM after 24 hrs by propidium iodide staining based flow cytometry (reference value: 2.2%)
- Format: functional
Give just the numeric value; % need not be written.

Solved entries (count: 2):
test.smiles | assay.target | measure.name | endpoint.value
Cl.O[C@H]1CN[C@H](COCCCCCCCCC/C=C/c2ccc(-c3ccccc3)cc2)C1 | PK9 | Activity | 9.6
Cl.O[C@H]1CN[C@H](COCCCCCCCC/C=C/c2ccc(Oc3ccccc3)cc2)C1 | PK9 | Activity | 3.5

IN: So what's the measured Activity for this one? CCCCCC/C=C\CCCCCCCCOC[C@H]1NC[C@H](O)[C@@H]1O
OUT: 3.8
